Data provenance: BigSolDB 2.1

Conditions: in acetonitrile, 293.25 K
Endpoint Label: solubility (mole fraction)
API note: the answer field is a bare number with no unit suffix.

Value of solubility (mole fraction) reported for the compound "c1ccc2c(c1)OP1(=NP3(=NP4(=N1)Oc1ccccc1O4)Oc1ccccc1O3)O2" is 0.000116

====

Conditions: in THF, 298.25 K
Endpoint Label: solubility (mole fraction)
API note: the answer field is a bare number with no unit suffix.

Value of solubility (mole fraction) reported for the compound "c1ccc2c(c1)OP1(=NP3(=NP4(=N1)Oc1ccccc1O4)Oc1ccccc1O3)O2" is 0.00112

====

Conditions: in toluene, 298.25 K
Endpoint Label: solubility (mole fraction)
API note: the answer field is a bare number with no unit suffix.

Value of solubility (mole fraction) reported for the molecule "c1ccc2c(c1)OP1(=NP3(=NP4(=N1)Oc1ccccc1O4)Oc1ccccc1O3)O2" is 0.000868
